Measured growth, listed per entry for reference.
Test system: DU-145 prostate
test.description: NCI-60 one-dose screen, 48 h (100 = growth as untreated, 0 = no growth, -100 = all killed)
test.conditions: 10 µM
About 83,000 compounds went through this panel and 20% of them were active in at least one assay; those are over-represented in the sample as a whole. Active and inactive are the calls of the source. How the source made its calls: active means growth percent below 10; inactive means the rest.
recorded.metric: growth

>>> val("Cc1cc(N(CCOS(C)(=O)=O)CCOS(C)(=O)=O)ccc1C=Nc1ccc(-c2nc(Cc3ccccc3)sc2C)cc1")
"11.8% (inactive)"
>>> val("Cc1ccc(Sc2ccccc2N)cc1")
"6.34% (active)"
>>> val("C=C1C(=O)OC2CC1C(OC(C)=O)C/C(C)=C/CC/C(C)=C\\CCC2(C)O (centres undefined)")
"-5% (active)"
>>> val("COc1ccc(C(=O)C(CN(C)C)CN(C)C)cc1")
"56.9% (inactive)"
